Assay: NCI Yeast Anticancer Drug Screen. Data for the rad50 strain (AID 155);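 note: 0% = growth of vehicle-only cultures of the same strain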
Conditions: S. cerevisiae rad50 strain growth inhibition; at 50.0 µM (retest, dose inferred, filed as 5.0); hits give high values
The panel holds about 79,000 compounds, 15% with a hit somewhere; the sample as a whole holds those more often.
Tag: true (1) if measured growth inhibition is not below 80%, false (0) if it is.

>  <compound>
COc1ccc(C2CC(c3c(O)ccc4ccccc34)=NN2)cc1OC (centres undefined)

>  <cat>
true (1)

$$$$
>  <compound>
CCC(=O)C(C(=O)CC)c1c(OC(=O)c2ccccc2)ccc(O)c1C(=O)OC

>  <cat>
false (0)

$$$$
>  <compound>
COc1ccc(C2COc3cc(OC(C)=O)c(OC(C)=O)cc3C2)cc1 (centres undefined)

>  <cat>
true (1)

$$$$
>  <compound>
CC[N+](C)(CC)CCC(=O)/C=C/c1ccccc1

>  <cat>
false (0)

$$$$
>  <compound>
Cc1ccc(NCCN(C)C)c2c(=O)c3c(O)cccc3sc12

>  <cat>
true (1)

$$$$
>  <compound>
CN(C)c1ccc(C=Nc2cnc3ccccc3c2)cc1

>  <cat>
false (0)

$$$$
>  <compound>
O=C1COC(=O)/C1=C\C=C\c1ccccc1

>  <cat>
false (0)

$$$$
>  <compound>
Clc1ccc([O][In]([O]c2ccc(Cl)cn2)[O]c2ccc(Cl)cn2)nc1

>  <cat>
false (0)

$$$$
>  <compound>
COc1cc2c(c(OC)c1OC)-c1ccc(O)c(=O)cc1C(N=Cc1ccccc1)CC2 (centres undefined)

>  <cat>
false (0)

$$$$
>  <compound>
O=C(CC(O)c1ccccc1)Sc1ccccc1 (centres undefined)

>  <cat>
false (0)

$$$$
>  <compound>
CC(C)C[NH-].CC(C)C[NH-].[Cl][Pt+2]([Cl])([Cl])[Cl]

>  <cat>
true (1)

$$$$
>  <compound>
COc1ccc(Cc2c3ccccc3cc[n+]2C)cc1Oc1ccc(Cc2c3ccccc3cc[n+]2C)cc1

>  <cat>
true (1)

$$$$
>  <compound>
CC(=O)Nc1ccc(/C=C2/NC(=S)N(/C=C3\C(=O)Oc4ccccc4C3=O)C2=O)cc1

>  <cat>
false (0)

$$$$
>  <compound>
CC[N+]1(C)CCC(O)(c2ccc(Cl)c(Cl)c2)C(C(=O)c2ccc(Cl)c(Cl)c2)C1 (centres undefined)

>  <cat>
true (1)

$$$$
>  <compound>
O=[N+]([O-])c1ccc2c(c1)CCc1ccccc1-2

>  <cat>
false (0)

$$$$
>  <compound>
CC(=O)NCCN(C)C

>  <cat>
false (0)

$$$$
>  <compound>
O=C(O)c1cc2ccc3cccc4ccc(c1)c2c34

>  <cat>
true (1)

$$$$
>  <compound>
COC(=O)CCCCCCCCCCC(=O)O

>  <cat>
false (0)

$$$$

====

Assay: NCI Yeast Anticancer Drug Screen. Data for the mec2-1 strain (AID 157)
Settings: S. cerevisiae mec2-1 strain, at 50.0 µM (retest, dose inferred, filed as 5.0), hits give high values
This is part of a sample that, as a whole, favours compounds with a hit. Of some 79,000 tested, about 15% had one in any assay.
Listing: growth inhibition of selected compounds

>  <compound>
CC(=O)C(C(=O)CCSCCO)C(SCCO)c1ccc(Cl)c(Cl)c1 (stereo not given)

>  <endpoint unit>
%

>  <growth inhibition>
63

$$$$
>  <compound>
COc1c2c(c(C)c3ccc4ccccc4c13)CCN=C2

>  <endpoint unit>
%

>  <growth inhibition>
95

$$$$
>  <compound>
OC(CCN1CCOCC1)C1c2ccccc2Cc2ccccc21 (stereo not given)

>  <endpoint unit>
%

>  <growth inhibition>
29

$$$$
>  <compound>
CCCCCCCCCCCCCCCC(=O)N1CC[N+](C)(CC2=CC3(Cl)C(Cl)=C(Cl)C2(Cl)C3(Cl)Cl)CC1 (stereo not given)

>  <endpoint unit>
%

>  <growth inhibition>
99

$$$$
>  <compound>
O=C(O)CSCc1cc2c3ccccc3sc2c2ccccc12

>  <endpoint unit>
%

>  <growth inhibition>
99

$$$$

====

Assay: NCI Yeast Anticancer Drug Screen. Data for the mlh1 rad18 strain (AID 175)
Settings: S. cerevisiae mlh1 rad18 strain growth inhibition; at 50.0 µM; hits give high values
About 79,000 compounds went through this panel and 15% of them were active in at least one assay; those are over-represented in the sample as a whole.
Each entry falls into one class according to its growth inhibition; the ranges are bottom end: < 60%; midrange: ≥ 60% and < 90%; top end: ≥ 90%

>  <compound>
CN1C=C(C#N)CCC1Sc1ccc(Cl)cc1 (stereo not drawn)

>  <cat>
midrange

$$$$
>  <compound>
CSc1nc(COC(=O)NC(C)C)c(COC(=O)NC(C)C)n1-c1ccccc1

>  <cat>
bottom end

$$$$
>  <compound>
Clc1ccc(OCCC(Cn2ccnc2)c2ccc(Cl)cc2Cl)c(Cl)c1 (stereo not drawn)

>  <cat>
bottom end

$$$$
>  <compound>
COc1cc2c(cc1O)C1C(O)C(O)C=C3CCN(C2)C31 (stereo not drawn)

>  <cat>
midrange

$$$$
>  <compound>
c1nc(N2CCOCC2)c2[nH]cnc2n1

>  <cat>
bottom end

$$$$
>  <compound>
Cc1cccc(-c2nnc(-c3cccc(C)c3)o2)c1

>  <cat>
bottom end

$$$$
>  <compound>
O=C(C[N+]1(CCc2ccccc2)CCOCC1)c1ccc(-c2ccccc2)cc1

>  <cat>
top end

$$$$
>  <compound>
C1Cc2c3c4c(c5c2C(C1)CCC5)CCCC4CCC3

>  <cat>
bottom end

$$$$
>  <compound>
O=C(CCCCN1CCN2c3ccccc3CCC2C1)c1ccccc1 (stereo not drawn)

>  <cat>
midrange

$$$$
>  <compound>
COc1cccc(C2CC(C)(O)Oc3cc4c(cc32)OCO4)c1 (stereo not drawn)

>  <cat>
bottom end

$$$$
>  <compound>
CN(c1ccccc1)N(C)c1ccccc1

>  <cat>
bottom end

$$$$
>  <compound>
O=C(c1ccc(Cl)cc1)c1ccc([N+](=O)[O-])cc1

>  <cat>
bottom end

$$$$
>  <compound>
CC(=O)N(C)c1cc(NCc2ccccc2)ccc1OCc1ccccc1

>  <cat>
top end

$$$$
>  <compound>
CC1CCCN(CC(O)CN2CCCc3ccccc32)C1 (stereo not drawn)

>  <cat>
top end

$$$$
>  <compound>
O=C(CC(O)c1ccccc1)Sc1ccccc1 (stereo not drawn)

>  <cat>
midrange

$$$$
>  <compound>
Cc1cc(Cl)cc2c1OCN(C)C2

>  <cat>
top end

$$$$
>  <compound>
COc1c(I)cc(I)c(O)c1I

>  <cat>
top end

$$$$
>  <compound>
O=C1NC(=Nc2ccccc2)C(=Nc2ccccc2)N1c1ccccc1

>  <cat>
midrange

$$$$
>  <compound>
N#CSc1ccc(O)cc1

>  <cat>
top end

$$$$
>  <compound>
CNC(=O)N(C1=NCC(C)S1)c1ccc(C)c(C)c1 (stereo not drawn)

>  <cat>
midrange

$$$$
>  <compound>
CC1=C(C(=O)Nc2cccc(C(F)(F)F)c2)C(c2ccccc2F)C(C(=O)Nc2cccc(C(F)(F)F)c2)=C(C)N1

>  <cat>
midrange

$$$$
>  <compound>
O=c1c2ccccc2[nH]c2c1[nH]c1ccccc12

>  <cat>
bottom end

$$$$
>  <compound>
CC1=C(C)CC(C#N)(C#N)C(C#N)(C#N)C1

>  <cat>
midrange

$$$$
>  <compound>
CCCCCCN(CCCCCC)P(=O)(N1CC1C)N1CC1C (stereo not drawn)

>  <cat>
bottom end

$$$$

====

Experiment: NCI Yeast Anticancer Drug Screen. Data for the mec2-1 strain (AID 157)
Details: S. cerevisiae mec2-1 strain, at 5.0 µM (retest, dose inferred, filed as 0.5), hits give high values
Compounds without any hit were thinned out: in the full panel of roughly 79,000, 15% have a hit.
test readout: growth inhibition (%)

>  <compound>
ClCCOCCOc1c(Cl)cc(Cl)c(Cl)c1Cl

>  <quantitative result>
0

$$$$
>  <compound>
CC(C)C(=O)c1ccc([N+](=O)[O-])o1

>  <quantitative result>
11

$$$$
>  <compound>
CC(=O)OC1=Cc2ccccc2C(c2ccccc2)c2ccccc21 (centres undefined)

>  <quantitative result>
-3

$$$$
>  <compound>
COc1ccccc1NC(=O)C1=C(C)NC(C)=C(C(=O)Nc2ccccc2OC)C1c1ccc(C2C(C(=O)Nc3ccccc3OC)=C(C)NC(C)=C2C(=O)Nc2ccccc2OC)cc1

>  <quantitative result>
31

$$$$

====

Assay: NCI Yeast Anticancer Drug Screen. Data for the mec2-1 strain (AID 157)
Conditions: S. cerevisiae mec2-1 strain, at 50.0 µM, hits give high values
This is part of a sample that, as a whole, favours compounds with a hit. Of some 79,000 tested, about 15% had one in any assay.
test readout: growth inhibition (%)

>  <compound>
NC(=O)C(=CNc1nc(-c2ccc(Br)cc2)cs1)C(N)=O

>  <test readout>
growth inhibition

>  <quantitative result>
99.5

$$$$
>  <compound>
Cc1ccc(C(=O)/C(Cl)=N/O)cc1

>  <test readout>
growth inhibition

>  <quantitative result>
99.1

$$$$
>  <compound>
CCNCC(O)COc1ccc2c(c1)[n+]([O-])nc(N)[n+]2[O-] (stereo unspecified)

>  <test readout>
growth inhibition

>  <quantitative result>
70

$$$$
>  <compound>
CCN1/C(=C/C=C/C=C\C=C\c2sc3ccc4ccccc4c3[n+]2CC)Sc2ccc3ccccc3c21

>  <test readout>
growth inhibition

>  <quantitative result>
46.8

$$$$
>  <compound>
C/C(=N\Nc1ccccn1)c1ccccn1

>  <test readout>
growth inhibition

>  <quantitative result>
98.7

$$$$
>  <compound>
CCCCCCC(OCCC)OCCC

>  <test readout>
growth inhibition

>  <quantitative result>
-15.6

$$$$
>  <compound>
Cc1cc(C)nc(NS(=O)(=O)c2ccc(NC(=O)c3cccnc3Nc3cccc(Cl)c3)cc2)n1

>  <test readout>
growth inhibition

>  <quantitative result>
13.1

$$$$
>  <compound>
c1ccc2c(c1)CCN2CCc1c[nH]c2ccccc12

>  <test readout>
growth inhibition

>  <quantitative result>
91.8

$$$$
>  <compound>
ClC(Cl)(Cl)C(c1ccccc1)c1ccccc1

>  <test readout>
growth inhibition

>  <quantitative result>
38.5

$$$$
>  <compound>
CN(Nc1ccc(Cl)cc1)c1ccc(Cl)cc1

>  <test readout>
growth inhibition

>  <quantitative result>
64

$$$$
>  <compound>
CCCCCCCCCCCCCCCCCC[n+]1cccc(C(=O)c2ccccc2)c1

>  <test readout>
growth inhibition

>  <quantitative result>
99.5

$$$$
